Reference for the values: patent US7579356B2

The reader will find IC50 measurements below, all made with c-Src kinase (human) (Homo sapiens).
Sequence (P12931 whole entry): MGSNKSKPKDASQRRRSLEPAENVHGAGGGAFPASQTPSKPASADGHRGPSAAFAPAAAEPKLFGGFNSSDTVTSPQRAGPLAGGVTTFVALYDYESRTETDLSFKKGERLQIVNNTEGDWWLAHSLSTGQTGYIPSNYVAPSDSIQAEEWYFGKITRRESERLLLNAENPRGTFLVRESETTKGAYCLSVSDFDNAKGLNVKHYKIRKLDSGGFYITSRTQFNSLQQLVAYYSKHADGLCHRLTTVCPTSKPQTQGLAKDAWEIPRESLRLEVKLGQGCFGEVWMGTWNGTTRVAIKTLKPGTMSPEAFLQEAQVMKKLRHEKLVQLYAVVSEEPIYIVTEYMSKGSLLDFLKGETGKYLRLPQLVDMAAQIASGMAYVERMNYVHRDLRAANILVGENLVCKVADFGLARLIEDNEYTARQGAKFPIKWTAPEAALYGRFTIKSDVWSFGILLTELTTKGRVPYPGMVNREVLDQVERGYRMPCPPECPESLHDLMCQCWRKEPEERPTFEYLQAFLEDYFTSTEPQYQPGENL

> print(dat)
                                givensmiles                        targetofassay  endpointvalue
1  O=C(O)c1sc2ncnc3c2c1NC(=O)N3c1ccc2c(ccn2Cc2cccc(F)c2)c1  c-Src kinase (human) (Homo sapiens)       > 200 µM
2  COC(=O)c1sc2ncnc3c2c1NC(=O)N3c1c(Cl)ccc2c1OCO2  c-Src kinase (human) (Homo sapiens)        1.49 µM

For the next question, use this molecule.
Indicate its recorded IC50; the molecule in question is O=C(Nc1ccc(CN2CCCCC2)cc1)c1sc2ncnc3c2c1NC(=O)N3c1ccc2c(cnn2Cc2cccc(F)c2)c1 > 200 µM

====

- targetOfAssay: HER-2 (Homo sapiens)
- Construct: His6 with thrombin site (N); purchased Proqinase (Freiburg, Germany)
- Sequence (P04626 679-1255): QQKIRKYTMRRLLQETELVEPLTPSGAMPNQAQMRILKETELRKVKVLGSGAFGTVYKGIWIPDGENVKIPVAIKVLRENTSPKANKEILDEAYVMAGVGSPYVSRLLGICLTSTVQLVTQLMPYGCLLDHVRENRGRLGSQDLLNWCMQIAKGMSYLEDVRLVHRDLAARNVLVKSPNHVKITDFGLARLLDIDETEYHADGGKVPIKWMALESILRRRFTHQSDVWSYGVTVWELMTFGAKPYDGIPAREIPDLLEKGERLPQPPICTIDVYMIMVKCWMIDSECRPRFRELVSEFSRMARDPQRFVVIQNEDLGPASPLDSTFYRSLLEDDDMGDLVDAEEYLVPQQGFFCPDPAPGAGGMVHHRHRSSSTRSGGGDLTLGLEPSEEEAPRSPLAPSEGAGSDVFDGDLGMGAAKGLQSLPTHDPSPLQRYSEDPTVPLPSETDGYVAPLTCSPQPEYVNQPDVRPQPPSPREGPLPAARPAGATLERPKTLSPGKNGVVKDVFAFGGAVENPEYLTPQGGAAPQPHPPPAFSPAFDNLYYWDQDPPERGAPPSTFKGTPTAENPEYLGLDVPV
- assayInfo: HER-2 Kinase Assay
- Format: biochemical
- testParameters: test concentration of 1 μM
measureName: inhibition at 1 µM (%)
Only the number, expressed in %, is required.

The cases that follow already have their inhibition at 1 µM on record.
> print(dat)
                                   molecule         measurename  endpointvalue
1  O=C(Nc1ccc(CN2CCOCC2)cc1)c1sc2ncnc3c2c1NC(=O)N3c1ccc(F)c(Cl)c1  inhibition at 1 µM             40
2  COc1cc(NC(=O)c2sc3ncnc4c3c2NC(=O)N4c2cc(OC)c(OC)c(OC)c2)ccc1OCC1CCCCO1 (centres unmarked)  inhibition at 1 µM              1
3  COc1ccc(Cl)cc1N1C(=O)Nc2c(C(=O)Nc3ccc(CN(C)C[C@H]4CCCO4)cc3)sc3ncnc1c23  inhibition at 1 µM              2
4  O=C(Nc1ccc(CN2CCCCC2)cc1)c1sc2ncnc3c2c1NC(=O)N3c1cc(OCc2cccc(F)c2)c(Cl)cc1Cl  inhibition at 1 µM            -20
5  COc1ccc(NC(=O)c2sc3ncnc4c3c2NC(=O)N4c2ccc(Br)cc2F)cc1OC  inhibition at 1 µM              1

Indicate its recorded inhibition at 1 µM; the molecule in question is O=C(Nc1ccc(CN2CCCCC2)cc1)c1sc2ncnc3c2c1NC(=O)N3c1ccc(Oc2ccccc2)c(Cl)c1 85

Indicate its recorded inhibition at 1 µM; the molecule in question is Cc1cccc(Cl)c1N1C(=O)Nc2c(C(=O)Nc3ccc(CN4CCOCC4)cc3)sc3ncnc1c23 21

Indicate its recorded inhibition at 1 µM; the molecule in question is Cc1cccc(Cl)c1N1C(=O)Nc2c(C(=O)Nc3ccc(C(O)CN4CCOCC4)cc3)sc3ncnc1c23 (centres unmarked) 30

====

- targetOfAssay: HER-2 (Homo sapiens)
- Construct: His6 with thrombin site (N)
- assayInfo: HER-2 Kinase Assay
- testParameters: value in parentheses
pIC50: −log10 of the molar value.
The following compounds are listed with their measured pIC50 values.

The cases that follow already have their pIC50 on record.
> print(dat)
                                givensmiles         targetofassay  endpointvalue
1  CCOC(=O)c1sc2ncnc3c2c1NC(=O)N3c1ccc(NC(=O)c2ccccc2)cc1  HER-2 (Homo sapiens)         < 4.00
2  CCOC(=O)C=Cc1ccc(NC(=O)c2sc3ncnc4c3c2NC(=O)N4c2ccc3nc(Cc4cccc(F)c4)[nH]c3c2)cc1  HER-2 (Homo sapiens)          ~4.00
3  O=C(Nc1ccc(N2CCOCC2)cc1)c1sc2ncnc3c2c1NC(=O)N3c1ccc2c(ccn2Cc2cccc(F)c2)c1  HER-2 (Homo sapiens)          ~5.00
4  CCOC(=O)c1sc2ncnc3c2c1NC(=O)N3c1ccc(OCc2ccco2)c(Cl)c1  HER-2 (Homo sapiens)         < 4.00

For the next question, use this compound.
Please indicate recorded pIC50 of O=C(Nc1ccc(N2C(=O)Nc3c(C(=O)Nc4ccc(CN5CCCCC5)cc4)sc4ncnc2c34)cc1)c1ccccc1 measured with HER-2 (Homo sapiens). < 4.00
